Record form. Attribute: Serum Shift (approximate). Fill in for each entry.
# ASSAYED_SYSTEM: HIF-2α (Homo sapiens)
# Sequence (Q99814 whole entry): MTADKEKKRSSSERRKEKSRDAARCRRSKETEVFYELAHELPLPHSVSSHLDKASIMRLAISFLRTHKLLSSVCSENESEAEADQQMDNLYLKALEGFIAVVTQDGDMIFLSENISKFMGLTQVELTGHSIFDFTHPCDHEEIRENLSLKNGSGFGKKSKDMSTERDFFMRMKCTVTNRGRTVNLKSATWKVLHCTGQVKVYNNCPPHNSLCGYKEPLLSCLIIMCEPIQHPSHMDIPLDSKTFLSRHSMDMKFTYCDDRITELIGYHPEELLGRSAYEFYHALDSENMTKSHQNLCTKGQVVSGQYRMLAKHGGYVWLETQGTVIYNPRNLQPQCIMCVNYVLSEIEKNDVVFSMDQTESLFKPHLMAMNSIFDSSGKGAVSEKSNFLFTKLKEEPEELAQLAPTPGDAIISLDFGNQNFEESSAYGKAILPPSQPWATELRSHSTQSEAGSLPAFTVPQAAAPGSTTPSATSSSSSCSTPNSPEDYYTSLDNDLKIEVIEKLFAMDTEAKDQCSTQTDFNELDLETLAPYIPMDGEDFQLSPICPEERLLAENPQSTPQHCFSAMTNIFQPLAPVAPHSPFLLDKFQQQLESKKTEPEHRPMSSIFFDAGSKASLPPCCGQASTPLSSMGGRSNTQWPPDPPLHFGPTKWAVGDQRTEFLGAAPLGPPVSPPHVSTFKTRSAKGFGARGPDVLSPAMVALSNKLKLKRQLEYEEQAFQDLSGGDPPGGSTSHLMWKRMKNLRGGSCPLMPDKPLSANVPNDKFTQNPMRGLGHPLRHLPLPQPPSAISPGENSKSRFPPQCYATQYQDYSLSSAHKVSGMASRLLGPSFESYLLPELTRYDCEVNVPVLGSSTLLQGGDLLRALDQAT
# TEST_DETAILS: HIF-2α Luciferase Reporter Assay (serum), HRE-luciferase 786-0 cells in 100% human serum
# Format: cell-based
# APPLIED_CONDITIONS: ratio of IC50 in 100% serum to IC50 in serum free conditions; approximate
One number for each entry.

Use these answered entries as a reference point.
| COMPOUND_STRING | OBSERVED_RESULT |
| --- | --- |
| C[C@@H](C#N)CCn1nc(C(F)(F)F)c2c1CCC(F)(F)[C@H]2O | 3 |
| O[C@H]1c2c(C(F)(F)F)nn(C3CCC(F)(F)CC3)c2CC1(F)F | 7 |
| CC(C)CCn1nc(C(F)(F)F)c2c1CCC(F)(F)[C@H]2O | 31 |
| O[C@H]1c2c(C(F)(F)F)nn([C@H]3C[C@H](COC(F)F)C3)c2CCC1(F)F | 20 |

Next up:
Query (compound): O[C@H]1c2c(C(F)(F)F)nn(CCCC(F)(F)F)c2CC[C@H]1F ; field requested: Serum Shift (approximate) 3
